Assay: Evaluation on solubility with respect to solvent
Format: physicochemical
Settings: organic solvent or mixture, thermodynamic from solid; 1 g added to 10 ml of xylene at 20° C., stirred for one hour, visually checked; read-out: Evaluation on solubility Xylene
MEASURED_ATTRIBUTE: solubility at 1 h

// solubility at 1 h lookup, molecule = `C=Cc1ccc(COc2ccc(C(C)(c3ccc(OCc4ccc(C=C)cc4)cc3)c3ccc(OCc4ccc(C=C)cc4)cc3)cc2)cc1` , result: < 100 mg/mL

---

Assay: Evaluation on solubility with respect to solvent
Type: physicochemical
Conditions: organic solvent or mixture, thermodynamic from solid; 1 g added to 10 ml of dichloroethane at 20° C., stirred for one hour, visually checked; read-out: Evaluation on solubility Dichloroethane
MEASURED_ATTRIBUTE: solubility at 1 h

// solubility at 1 h lookup, compound = `C=Cc1ccc(COc2ccc(C(C)(c3ccc(OCc4ccc(C=C)cc4)cc3)c3ccc(OCc4ccc(C=C)cc4)cc3)cc2)cc1` , result: > 100 mg/mL
